Threshold rule: melting point greater than or equal to 200 °C is Y; below that, N.

| Compound | Qualitative Label |
| --- | --- |
| CC(C)N(C)Cc1cnnn1-c1cccc(C2=Nc3cc(N(C)C(C)C)c(Cl)cc3NC(=O)C2)c1 [Example 148] | N |
| CN(C)c1cc2c(cc1Cl)NC(=O)CC(c1cccc(C#N)c1)=N2 [Example 1] | Y |
| CC(C)CN(C)c1cc2c(cc1C(F)(F)F)NC(=O)CC(c1cccc(-n3cccn3)c1)=N2 [Example 171] | N |
| CN(C)c1cc2c(cc1Cl)NC(=O)CC(c1cccc(-c3cc(CO)nn3C)c1)=N2 [Example 39] | N |
| CC(C)N(C)c1cc2c(cc1Cl)NC(=O)CC(c1cccc(-n3nncc3CN3CCCC3)c1)=N2 [Example 125] | N |
| CCCN(C)c1cc2c(cc1C#N)NC(=O)CC(c1cccc(-n3nncc3CO)c1)=N2 [Example 105] | Y |
| CN(C)c1cc2c(cc1C(F)(F)F)NC(=O)CC(c1cccc(-n3nncc3CO)c1)=N2 [Example 17] | Y |
| CC(C)CN(C)c1cc2c(cc1Cl)NC(=O)CC(c1cccc(-n3nncc3CN3CCCC3)c1)=N2 [Example 126] | N |
| COCCN(C)Cc1cnnn1-c1cccc(C2=Nc3cc(N(C)C(C)C)c(Cl)cc3NC(=O)C2)c1 [Example 146] | N |
| CC(C)N(C)c1cc2c(cc1C(F)(F)F)NC(=O)CC(c1ccnc(C#N)c1)=N2 [Example 172] | N |
| CCN(C)c1cc2c(cc1C)NC(=O)CC(c1cccc(-n3nncc3CO)c1)=N2 [Example 94] | Y |
| Cc1cc2c(cc1N(C)C)N=C(c1cccc(C#N)c1)CC(=O)N2 [Example 89] | Y |
| CC(C)CN(C)Cc1cnnn1-c1cccc(C2=Nc3cc(N(C)C(C)C)c(Cl)cc3NC(=O)C2)c1 [Example 149] | N |
| N#Cc1cc(C2=Nc3cc(N4CCC4)c(Cl)cc3NC(=O)C2)ccn1 [Example 59] | Y |
| CC(C)N(C)c1cc2c(cc1Cl)NC(=O)CC(c1cccc(-n3nncc3CN3CCC3)c1)=N2 [Example 129] | N |
| CC(C)CN(C)c1cc2c(cc1C(F)(F)F)NC(=O)CC(c1cccc(-n3nncc3CN(C)C)c1)=N2 [Example 136] | N |
| CC(C)CNc1cc2c(cc1Cl)NC(=O)CC(c1cccc(-n3ccnc3)c1)=N2 [Example 178] | Y |

====

Recorded measurements of melting point, one per entry

| Compound | melting point / °C |
| --- | --- |
| Cc1cc(-c2cccc(C3=Nc4cc(N(C)CC(C)C)c(C(F)(F)F)cc4NC(=O)C3)c2)on1 [Example 118] | 195 |
| Cc1cc(-c2cccc(C3=Nc4cc(N5CCCCC5)c(C#N)cc4NC(=O)C3)c2)on1 [Example 112] | 246 |
| CCCN(C)c1cc2c(cc1Cl)NC(=O)CC(c1cccc(-n3ncnc3CN(C)C)c1)=N2 [Example 166] | 170 |
| CN(C)c1cc2c(cc1Cl)NC(=O)CC(c1cccc(-n3cc(CO)cn3)c1)=N2 [Example 67] | 211 |
| CC(C)N(C)c1cc2c(cc1Cl)NC(=O)CC(c1cccc(-n3nncc3CNC3CCCC3)c1)=N2 [Example 142] | 174 |
| CCCN(C)c1cc2c(cc1Cl)NC(=O)CC(c1cccc(-n3ncnc3CN3CCCC3)c1)=N2 [Example 164] | 183 |
| Cc1cc2c(cc1N(C)CC(C)C)N=C(c1cccc(-n3nncc3CN3CCCC3)c1)CC(=O)N2 [Example 139] | 177 |
| CC(C)N(C)c1cc2c(cc1C(F)(F)F)NC(=O)CC(c1cccc(-n3nncc3CNCC3CC3)c1)=N2 [Example 153] | 152 |
| Cc1cc(-c2cccc(C3=Nc4cc(N(C)CC(C)C)c(C#N)cc4NC(=O)C3)c2)on1 [Example 110] | 170 |
| CN(C)c1cc2c(cc1C(F)(F)F)NC(=O)CC(c1cccc(-n3cccn3)c1)=N2 [Example 64] | 176 |

====

| Sample Smiles | Unit | melting point |
| --- | --- | --- |
| CN(C)Cc1cnnn1-c1cccc(C2=Nc3cc(N(C)C)c(C(F)(F)F)cc3NC(=O)C2)c1 | °C | 200 |
| CN(C)c1cc2c(cc1C#N)NC(=O)CC(c1cccc(C#N)c1)=N2 | °C | 251 |

====

Reported Endpoint: melting point (°C)

| Sample Smiles | Reported Value |
| --- | --- |
| Cc1cc(-c2cccc(C3=Nc4cc(N(C)C(C)C)c(C(F)(F)F)cc4NC(=O)C3)c2)on1 | 199 |
| CC(C)N(C)c1cc2c(cc1Cl)NC(=O)CC(c1cccc(-n3nncc3CO)c1)=N2 | 207 |

====

| Sample Smiles | melting point / °C |
| --- | --- |
| CC(C)CN(C)c1cc2c(cc1C#N)NC(=O)CC(c1cccc(-n3nncc3CN3CCCC3)c1)=N2 | 174 |
| CC(C)N(C)c1cc2c(cc1C(F)(F)F)NC(=O)CC(c1cccc(-n3nncc3CO)c1)=N2 | 234 |

====

Recorded measurements of melting point, one per entry
Reported Endpoint: melting point (°C)

| Molecule | Unit | Reported Value |
| --- | --- | --- |
| CCCN(C)c1cc2c(cc1Cl)NC(=O)CC(c1cccc(-n3ncnc3CNC3CC3)c1)=N2 [Example 167] | °C | 123 |
| CCCN(C)c1cc2c(cc1C)NC(=O)CC(c1cccc(-n3nncc3CO)c1)=N2 [Example 93] | °C | 186 |
| CC(C)CN(C)c1cc2c(cc1Cl)NC(=O)CC(c1cccc(-n3ncnc3CN3CCCC3)c1)=N2 [Example 165] | °C | 164 |
| CCN(CC)c1cc2c(cc1C#N)NC(=O)CC(c1cccc(-c3cc(C)no3)c1)=N2 [Example 107] | °C | 191 |
| CC(C)CN(C)c1cc2c(cc1Cl)NC(=O)CC(c1cccc(-n3nncc3CO)c1)=N2 [Example 101] | °C | 201 |
| CCCN(C)c1cc2c(cc1Cl)NC(=O)CC(c1cccc(-n3nncc3CN3CCC3)c1)=N2 [Example 122] | °C | 169 |
| CN(C)c1cc2c(cc1C(F)(F)F)NC(=O)CC(c1cccc(-c3ccnn3C)c1)=N2 [Example 33] | °C | 225 |
| Cc1cc(-c2cccc(C3=Nc4cc(N(C)CC(C)C)c(Cl)cc4NC(=O)C3)c2)on1 [Example 102] | °C | 194 |
| CCCN(C)c1cc2c(cc1C(F)(F)F)NC(=O)CC(c1cccc(-n3ccnn3)c1)=N2 [Example 170] | °C | 147 |
| CCCN(C)c1cc2c(cc1C(F)(F)F)NC(=O)CC(c1cccc(-n3nncc3CO)c1)=N2 [Example 115] | °C | 230 |

====

Recorded measurements of Ki, one per entry
Biological target: recombinant rat mGluR2 expressed in CHO cells (Rattus norvegicus)
Construct: expressed in transfected cells; vector pcDNA I-amp, construct pcD1mGR2
Assay: [3H]-LY354740 binding on mGlu2 transfected CHO cell membranes (displacement binding assay)

| Compound | Target Entity | Ki / nM |
| --- | --- | --- |
| CN(CC1CC1)c1cc2c(cc1C(F)(F)F)NC(=O)CC(c1ccnc(C#N)c1)=N2 [Example 78] | recombinant rat mGluR2 expressed in CHO cells (Rattus norvegicus) | 5 |
| CCN(CC)c1cc2c(cc1Cl)NC(=O)CC(c1cccc(-n3nncc3CO)c1)=N2 [Example 30] | recombinant rat mGluR2 expressed in CHO cells (Rattus norvegicus) | 44 |
| CN(C)c1cc2c(cc1-c1cccc(F)c1F)NC(=O)CC(c1cccc(-n3ccnn3)c1)=N2 [Example 8] | recombinant rat mGluR2 expressed in CHO cells (Rattus norvegicus) | 70 |
| CN(C)c1cc2c(cc1C(F)(F)F)NC(=O)CC(c1cccc(-c3nnc(CO)s3)c1)=N2 [Example 204] | recombinant rat mGluR2 expressed in CHO cells (Rattus norvegicus) | 17 |

====

Target: recombinant rat mGluR2 expressed in CHO cells (Rattus norvegicus, UniProt P31421)
Construct: vector pcDNA I-amp, construct pcD1mGR2
Sequence (P31421 19-872): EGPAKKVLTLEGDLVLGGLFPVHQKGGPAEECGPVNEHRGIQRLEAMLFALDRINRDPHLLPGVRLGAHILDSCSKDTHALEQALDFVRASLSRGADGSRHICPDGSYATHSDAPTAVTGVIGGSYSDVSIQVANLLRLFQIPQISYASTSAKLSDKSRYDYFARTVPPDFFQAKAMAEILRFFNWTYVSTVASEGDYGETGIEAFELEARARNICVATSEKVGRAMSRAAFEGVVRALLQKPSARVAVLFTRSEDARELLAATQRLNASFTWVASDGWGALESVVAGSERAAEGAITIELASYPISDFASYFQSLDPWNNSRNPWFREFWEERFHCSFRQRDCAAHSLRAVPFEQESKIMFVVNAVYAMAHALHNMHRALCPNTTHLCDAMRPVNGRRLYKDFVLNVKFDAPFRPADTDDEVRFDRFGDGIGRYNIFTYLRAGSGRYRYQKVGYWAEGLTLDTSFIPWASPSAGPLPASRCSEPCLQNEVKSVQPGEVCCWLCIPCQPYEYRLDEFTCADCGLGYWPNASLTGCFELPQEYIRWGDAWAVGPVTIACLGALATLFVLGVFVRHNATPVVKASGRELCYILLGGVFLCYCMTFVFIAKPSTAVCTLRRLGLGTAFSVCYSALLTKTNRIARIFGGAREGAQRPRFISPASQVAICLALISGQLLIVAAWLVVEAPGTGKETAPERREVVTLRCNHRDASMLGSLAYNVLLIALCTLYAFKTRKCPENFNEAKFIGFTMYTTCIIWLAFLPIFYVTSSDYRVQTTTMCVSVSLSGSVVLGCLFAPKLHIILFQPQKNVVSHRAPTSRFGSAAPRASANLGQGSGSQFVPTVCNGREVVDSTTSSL
Experiment: [3H]-LY354740 binding on mGlu2 transfected CHO cell membranes (displacement binding assay)
Response field label: string, one of class 1 (Ki strictly below 30 nM) or class 0.

| Compound | Qualitative Label |
| --- | --- |
| CCCN(C)c1cc2c(cc1Cl)NC(=O)CC(c1cccc(-n3nncc3CN3CCC3)c1)=N2 [Example 122] | class 1 |
| CC(C)CN(C)c1cc2c(cc1C(F)(F)F)NC(=O)CC(c1cccc(-n3cncn3)c1)=N2 [Example 174] | class 1 |
| CCCN(C)c1cc2c(cc1C(F)(F)F)NC(=O)CC(c1cccc(-n3cncn3)c1)=N2 [Example 169] | class 1 |
| CN(c1cc2c(cc1Cl)NC(=O)CC(c1cccc(-n3nncc3CO)c1)=N2)C1CC1 [Example 37] | class 0 |
| CN(C)c1cc2c(cc1Cl)NC(=O)CC(c1cccc(-c3ccnn3C)c1)=N2 [Example 16] | class 1 |
| CCNc1nc(-c2cccc(C3=Nc4cc(N(C)C)c(Cl)cc4NC(=O)C3)c2)cs1 [Example 195] | class 0 |
